experiment: Phototoxicity against human SK-MEL-28 cells assessed as reduction in cell viability preincubated for 12 hrs followed by 15 mins of light irradiation and measured after 24 hrs by neutral red uptake assay; format: functional, cell-based; conditions: SK-MEL-28, light or radiation study
# note: exactly 0.2 µM is not below, so it is 0; use 1 for EC50 strictly under it

compound	cat
COC(=O)[C@H](Cc1ccc(O[B-]23n4c5c6c(F)c(F)c(F)c(F)c6c4N=c4c6c(F)c(F)c(F)c(F)c6c(n42)=NC2=[N+]3C(=N5)c3c(F)c(F)c(F)c(F)c32)cc1)NC(=O)OC(C)(C)C (stereo partly drawn)	0
CCSc1ccc2c(c1)C1=Nc3c4ccc(SCC)cc4c4n3[B-]3(Oc5ccc(C[C@H](NC(=O)OC(C)(C)C)C(=O)OC)cc5)n5c(c6cc(SCC)ccc6c5=N4)=NC2=[N+]13 (stereo partly drawn)	0
COC(=O)[C@H](Cc1ccc(O[B@@-]23n4c5c6ccc(I)cc6c4N=c4c6ccc(I)cc6c(n42)=NC2=[N+]3C(=N5)c3ccc(I)cc32)cc1)NC(=O)OC(C)(C)C	0

Please let me know if Ic1ccc2c(c1)C1=[N+]3C2=Nc2c4ccc(I)cc4c4n2[B@-]3(OCc2ccc3c(c2)OCCOCCOCCOCCOCCO3)n2c(c3cc(I)ccc3c2=N4)=N1 shows EC50 below 0.2 µM.
1

Please indicate whether the reported EC50 of CCSc1ccc2c(c1)C1=Nc3c4ccc(SCC)cc4c4n3[B@-]3(Oc5ccc(C[C@H](N)C(=O)OC)cc5)n5c(c6cc(SCC)ccc6c5=N4)=NC2=[N+]13 is strictly below 0.2 µM.
0

Quick check: does Fc1c(F)c(F)c2c(c1F)C1=Nc3c4c(F)c(F)c(F)c(F)c4c4n3[B-]3(OCc5ccc6c(c5)OCCOCCOCCOCCOCCO6)n5c(c6c(F)c(F)c(F)c(F)c6c5=N4)=NC2=[N+]13 (stereo not drawn) have EC50 under 0.2 µM?
0

A record lists CCSc1ccc2c(c1)C1=Nc3c4ccc(SCC)cc4c4n3[B-]3(OCc5ccc6c(c5)OCCOCCOCCOCCOCCO6)n5c(c6cc(SCC)ccc6c5=N4)=NC2=[N+]13 (stereo not drawn) . Is its EC50 below 0.2 µM?
1

Take the compound COC(=O)[C@@H](N)Cc1ccc(O[B-]23n4c5c6ccc(I)cc6c4N=c4c6ccc(I)cc6c(n42)=NC2=[N+]3C(=N5)c3ccc(I)cc32)cc1 (stereo partly drawn) and say whether its EC50 is less than 0.2 µM.
0

* * *

assay: Induction of singlet oxygen generation in THF assessed as singlet oxygen quantum yield; assay type: functional
recorded-metric: Activity

Examples with their reported Activity follow.
molecule	Activity
Ic1ccc2c(c1)C1=[N+]3C2=Nc2c4ccc(I)cc4c4n2[B@-]3(OCc2ccc3c(c2)OCCOCCOCCOCCOCCO3)n2c(c3cc(I)ccc3c2=N4)=N1	0.57
COC(=O)[C@H](Cc1ccc(O[B-]23n4c5c6c(F)c(F)c(F)c(F)c6c4N=c4c6c(F)c(F)c(F)c(F)c6c(n42)=NC2=[N+]3C(=N5)c3c(F)c(F)c(F)c(F)c32)cc1)NC(=O)OC(C)(C)C (stereo partly specified)	0.19
COC(=O)[C@H](Cc1ccc(O[B@@-]23n4c5c6ccc(I)cc6c4N=c4c6ccc(I)cc6c(n42)=NC2=[N+]3C(=N5)c3ccc(I)cc32)cc1)NC(=O)OC(C)(C)C	0.64

I have 3 molecules here; please give me Activity for each one.
1. Cl[B-]12n3c4c5ccc(I)cc5c3N=c3c5ccc(I)cc5c(n31)=NC1=[N+]2C(=N4)c2ccc(I)cc21 (stereo unspecified)
2. COC(=O)[C@@H](N)Cc1ccc(O[B-]23n4c5c6ccc(I)cc6c4N=c4c6ccc(I)cc6c(n42)=NC2=[N+]3C(=N5)c3ccc(I)cc32)cc1 (stereo partly specified)
3. CCSc1ccc2c(c1)C1=Nc3c4ccc(SCC)cc4c4n3[B-]3(OCc5ccc6c(c5)OCCOCCOCCOCCOCCO6)n5c(c6cc(SCC)ccc6c5=N4)=NC2=[N+]13 (stereo unspecified)

[0.7, 0.49, 0.57]
